Tested on: Human macrophage-like THP-1 cells
Procedure details: Cholesterol excretion promoting activity of fatty acids, fluorometry, 24 h pre-culture with the substance
Type: cell-based
Setup conditions: same manner as Example 5A, concentration not given; EtOH = 1; n=6 to 11
Parameter: Cholesterol excretion level (Average ± standard deviation) (relative value)
Reply with just the number (in relative value).

Exercise: Requested field: Cholesterol excretion level (Average ± standard deviation). Item: CCCCCCC(O)CCCCCCCCC(=O)O (centres unmarked) [10-hydroxypalmitic acid]
Solution: 1.331

Exercise: Please look up its Cholesterol excretion level (Average ± standard deviation): CCCCCCCCCCCCCCCC(=O)O [Palmitic acid, palmitic acid, reference compound]
Solution: 0.823

Exercise: Which Cholesterol excretion level (Average ± standard deviation) value belongs to O=C(O)CCCCCCCCCCCCCCCO [16-hydroxypalmitic acid] ?
Solution: 1.406

Exercise: I'd like to know its Cholesterol excretion level (Average ± standard deviation). The compound in question is CCCCCCCCCCCCCC(O)CC(=O)O (centres unmarked) [3-Hydroxypalmitic acid, 3-hydroxypalmitic acid, reference compound]
Solution: 1.094

Exercise: What does the record list as Cholesterol excretion level (Average ± standard deviation) for CCCCCCCCCCCCCCC(O)C(=O)O (centres unmarked) [2-Hydroxypalmitic acid, 2-hydroxypalmitic acid, reference compound] ?
Solution: 0.970

Source: patent US20260224520A1
